Consider the following molecules; for each one, report its GI50.
# System: A549
# EXPERIMENTAL_DETAILS: NCI tumour cell line growth inhibition, 48 h
Active and inactive are the calls of the source. Rule as the data show it: active = GI50 up to about 1.1 µM and inactive = higher.

Worked cases, GI50 given:
INSERT INTO assay_data (molecule, subject_of_test, reported_metric, experimental_result) VALUES
  ('Cc1ccc(-c2c(C#N)c(-c3ccc(N(C)C)cc3)c(C#N)c(=O)n2NS(=O)(=O)c2ccccc2)cc1', 'A549', 'GI50', '36.5 µM (inactive)'),
  ('C/C(=C1/N=C(c2cc([N+](=O)[O-])ccc2Cl)N(c2ccc(Br)cc2)C1=O)c1cc2ccccc2oc1=O', 'A549', 'GI50', '25.9 µM (inactive)'),
  ('Cc1ccc(C)c(NC(=O)c2cccc([N+](=O)[O-])c2O)c1', 'A549', 'GI50', '25.5 µM (inactive)'),
  ('COc1ccc2c(=O)c3cc([N+](=O)[O-])ccc3n(C)c2c1', 'A549', 'GI50', '> 100 µM (inactive)'),
  ('O=C(NCC#CCO)C(F)(F)F', 'A549', 'GI50', '> 100 µM (inactive)'),
  ('COc1ccc2c(CCNC(C)=O)c(C(C)=O)[nH]c2c1', 'A549', 'GI50', '> 100 µM (inactive)'),
  ('COc1ccc(-c2c(C#N)c(O)n(C3OC(COC(C)=O)C(OC(C)=O)C(OC(C)=O)C3OC(C)=O)c(=S)c2C#N)cc1 (stereo not given)', 'A549', 'GI50', '> 100 µM (inactive)'),
  ('C=CCP(=O)(CC=C)C(Cl)Cl', 'A549', 'GI50', '> 100 µM (inactive)'),
  ('O=C1N/C(=N/N=C/c2c[nH]c3ccccc23)N/C1=C\c1c[nH]c2ccccc12', 'A549', 'GI50', '18.9 µM (inactive)');

Below: the item to evaluate.
Lab note: record GI50 of C=C(C)C1CC(=O)C(C)=C(O)C1 (stereo not given) tested on A549.
> 100 µM (inactive)
